Biological target: human cathepsin L (Homo sapiens, UniProt P07711)
Construct: purchased R&D Systems
Assay: cathepsin L assay
Type: biochemical
Details: 10 pM human cathepsin L, Z-FR-AMC 2 μM, class symbols
RESULT TYPE: IC50

Worked cases, IC50 given:
Form field IC50 for item COc1cccc2[nH]c(C(=O)N3C[C@@H]4CCC[C@@H]4[C@H]3C(=O)NC(C[C@@H]3CCNC3=O)C(=O)C(C)O)cc12 (stereo partly drawn) on human cathepsin L (Homo sapiens, UniProt P07711): ≥ 10 µM

Form field IC50 for item `COc1cccc2[nH]c(C(=O)N3C[C@@H]4CCC[C@@H]4[C@H]3C(=O)N[C@@H](C[C@@H]3CCNC3=O)C(=O)C(=O)N[C@H]3CCOC3)cc12` on human cathepsin L (Homo sapiens, UniProt P07711): ≥ 10 µM

Could you now look at the following compound, please?
Form field IC50 for item `COc1cccc2[nH]c(C(=O)N3C[C@@H]4CCC[C@@H]4[C@H]3C(=O)N[C@@H](C[C@@H]3CCNC3=O)C(=O)CO)c(F)c12` on human cathepsin L (Homo sapiens, UniProt P07711): ≥ 10 µM

---

Test: in vitro
Settings: human
Examples of compounds with documented CC50 follow.

Worked cases, CC50 given:
Briefly, CC50 measured for `COc1cccc2[nH]c(C(=O)N3C[C@]4(C[C@H]3C(=O)N[C@@H](C[C@@H]3CCCNC3=O)C(=O)CO)CC4(F)F)cc12` : > 100 µM

Briefly, CC50 measured for COc1cccc2[nH]c(C(=O)N3C[C@@H]4CCC[C@@H]4[C@H]3C(=O)N[C@@H](CC3CC(C)(C)NC3=O)C(=O)COCc3ccccc3)cc12 (relative stereo) : > 10 µM

Briefly, CC50 measured for `O=C1NCC[C@H]1C[C@H](NC(=O)[C@@H]1[C@H]2CCC[C@H]2CN1C(=O)c1cc2c(OCc3ccccc3)cccc2[nH]1)C(=O)CO` : > 50 µM

Briefly, CC50 measured for `CC(C)CCCNC(=O)C(=O)[C@H](C[C@@H]1CCNC1=O)NC(=O)[C@@H]1[C@H]2CCC[C@H]2CN1C(=O)c1cc2c(Cl)cc(Cl)cc2[nH]1` : 1 to 10 µM

Others:
Briefly, CC50 measured for `CC[C@@H]1C[C@@H](C(=O)N[C@@H](C[C@@H]2CCNC2=O)C(=O)C(=O)NCc2ccccc2)N(C(=O)c2cc3ccccc3[nH]2)C1` : > 10 µM

Briefly, CC50 measured for `O=C1NCC[C@H]1C[C@H](NC(=O)[C@@H]1[C@H]2CCC[C@H]2CN1C(=O)c1cc2c(C(F)(F)F)cccc2[nH]1)C(=O)CO` : > 10 µM

---

Examples of molecules with documented pIC50 follow.
Molecular target: UniProt:P03303
Test: HRV3C protease assay (duplex, SAMDI-MS)
Assay type: biochemical, HRV
Conditions: HRV3C, 30 mins preincubation, class symbols; read-out: HRV IC50
pIC50: −log10 of the molar value.

Worked cases, pIC50 given:
Briefly, pIC50 measured for COc1cccc2[nH]c(C(=O)N3C[C@]4(C[C@H]3C(=O)N[C@@H](C[C@@H]3CCCNC3=O)C(=O)CO)CC4(F)F)cc12 [Compound 47] : 4.70 to 5.70

Briefly, pIC50 measured for CC1(C)[C@@H]2[C@@H](C(=O)NC(C[C@@H]3CCNC3=O)C(=O)C(=O)NCc3ccccc3)N(C(=O)c3cc4ccccc4[nH]3)C[C@@H]21 (stereo partly drawn) [Compound 4] : 4.70 to 5.70

Others:
Briefly, pIC50 measured for C=C[C@@H]1C[C@@H](C(=O)N[C@@H](C[C@@H]2CCNC2=O)C(=O)C(=O)NCc2ccccc2)N(C(=O)c2cc3ccccc3[nH]2)C1 [Compound 30] : 5.70 to 6.70
